target: Leukotriene D4 receptor (Cavia porcellus)
Sequence (Q2NNR5 whole entry): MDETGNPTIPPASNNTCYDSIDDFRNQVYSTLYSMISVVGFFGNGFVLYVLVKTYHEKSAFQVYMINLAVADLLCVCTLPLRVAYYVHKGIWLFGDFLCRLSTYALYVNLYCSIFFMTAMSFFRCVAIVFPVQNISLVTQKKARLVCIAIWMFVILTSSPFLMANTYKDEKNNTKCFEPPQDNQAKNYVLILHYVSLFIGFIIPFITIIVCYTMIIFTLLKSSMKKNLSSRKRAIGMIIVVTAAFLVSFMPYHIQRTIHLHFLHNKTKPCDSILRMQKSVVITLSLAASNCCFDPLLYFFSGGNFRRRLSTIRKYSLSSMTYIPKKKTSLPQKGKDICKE
Where a name gives a salt, the structure may show the parent alone.
recorded_endpoint: IC50 (µM)

CC(C)(C)c1csc(-c2cc3cc(OCc4cccc(-c5nnn[nH]5)c4)ccc3o2)n1    0.0178

A: CC(C)(C)c1csc(-c2cc3cc(OCc4ccccc4Cc4nnn[nH]4)ccc3o2)n1
B: CC(C)(C)c1csc(-c2cc3cc(OCc4ccccc4CC(=O)O)ccc3o2)n1 [Example 51, hydrochloride]
[Q] // returns A or B , whichever has the lower IC50 Please identify the chosen entry by its label.
[A] B
(B: 0.0138 µM, A: 0.0382 µM)
